# ASSAY SYSTEM: BACE1 (human recombinant β-secretase) (Homo sapiens)
# Sequence (P56817 46-501): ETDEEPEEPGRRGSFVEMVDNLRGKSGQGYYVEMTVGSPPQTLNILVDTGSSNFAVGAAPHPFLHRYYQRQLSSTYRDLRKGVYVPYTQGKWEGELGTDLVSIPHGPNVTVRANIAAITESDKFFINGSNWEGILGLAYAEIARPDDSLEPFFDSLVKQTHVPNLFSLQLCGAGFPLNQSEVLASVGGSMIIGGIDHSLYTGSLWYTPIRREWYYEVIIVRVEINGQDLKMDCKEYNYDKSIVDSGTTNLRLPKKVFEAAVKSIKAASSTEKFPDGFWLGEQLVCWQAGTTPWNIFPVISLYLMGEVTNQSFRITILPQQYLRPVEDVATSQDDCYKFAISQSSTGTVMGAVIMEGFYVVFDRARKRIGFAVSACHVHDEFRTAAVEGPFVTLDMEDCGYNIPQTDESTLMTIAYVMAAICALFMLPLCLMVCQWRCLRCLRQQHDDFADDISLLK
# ASSAY NOTES: In vitro BACE1 FRET enzyme assay
# Type: biochemical
# CONDITION DESCRIPTION: mean ± S.D. of three experiments
pIC50: −log10 of the molar value.
PROPERTY NAME: pIC50

INSERT INTO measurements (compound, property_name, qualifier_symbol, reported_measurement) VALUES
  ('Cc1cc2c(c(C)c1CCOC1OC(CO)C(O)C(O)C1O)C(=O)C(C)(CO)C2 [(2S)-Pteroside A, (2S)-pteroside A]', 'pIC50', '=', 4.07),
  ('Cc1cc2c(c(C)c1CCO[C@@H]1O[C@H](CO)[C@@H](O)[C@H](O)[C@H]1O)C(=O)C(C)(C)C2 [Pteroside Z, pteroside Z]', 'pIC50', '=', 4.27),
  ('Cc1cc2c(c(C)c1CCO)C(=O)C(C)(C)C2', 'pIC50', '=', 4.10),
  ('Cc1cc2c(c(C)c1CCOC1OC(CO)C(O)C(O)C1O)C(=O)C(C)C2O [(2R,3R)-Pteroside C, (2R,3R)-pteroside C]', 'pIC50', '=', 5.01),
  ('Cc1cc2c(c(C)c1CCO)C(=O)[C@](C)(CO)C2', 'pIC50', '<', 3.90),
  ('Cc1cc2c(c(C)c1CCOC1OC(CO)C(O)C(O)C1O)C(=O)C(C)C2 [(2R)-Pteroside B, (2R)-pteroside B]', 'pIC50', '=', 4.74);

* * *

# Tested on: SH-SY5Y human neuroblastoma
# ASSAY NOTES: MTT cytotoxicity assay, SH-SY5Y
# Format: cell-based
# CONDITION DESCRIPTION: 24 h
PROPERTY NAME: LD50 Based on MTT Assay, SY-SY5Y

INSERT INTO results (compound, reported_measurement) VALUES
  ('Cc1cc2c(c(C)c1CCO)C(=O)[C@](C)(CO)C2', '1,210 ± 110 µM'),
  ('Cc1cc2c(c(C)c1CCOC1OC(CO)C(O)C(O)C1O)C(=O)C(C)C2 [(2R)-Pteroside B, (2R)-pteroside B]', '>5,000 µM'),
  ('Cc1cc2c(c(C)c1CCOC1OC(CO)C(O)C(O)C1O)C(=O)C(C)(C)C2O [(3S)-Pteroside D, (3S)-pteroside D]', '1,320 ± 86 µM'),
  ('Cc1c(CCO)c(CO)cc2c1C(=O)[C@@H](C)C2', '>5,000 µM'),
  ('Cc1cc2c(c(C)c1CCOC1OC(CO)C(O)C(O)C1O)C(=O)C(C)(CO)C2 [(2S)-Pteroside A, (2S)-pteroside A]', '>5,000 µM'),
  ('Cc1cc2c(c(C)c1CCO[C@@H]1O[C@H](CO)[C@@H](O)[C@H](O)[C@H]1O)C(=O)C(C)(C)C2 [Pteroside Z, pteroside Z]', '1,430 ± 210 µM'),
  ('Cc1cc2c(c(C)c1CCO)C(=O)[C@H](C)[C@H]2O', '719 ± 25 µM');

* * *

# ASSAY SYSTEM: horse serum BChE (Equus caballus, UniProt P81908)
# Construct: horse serum BChE (EC 3.1.1.8); purchased Sigma-Aldrich Co; host or cells: horse serum
# Sequence (P81908 whole entry): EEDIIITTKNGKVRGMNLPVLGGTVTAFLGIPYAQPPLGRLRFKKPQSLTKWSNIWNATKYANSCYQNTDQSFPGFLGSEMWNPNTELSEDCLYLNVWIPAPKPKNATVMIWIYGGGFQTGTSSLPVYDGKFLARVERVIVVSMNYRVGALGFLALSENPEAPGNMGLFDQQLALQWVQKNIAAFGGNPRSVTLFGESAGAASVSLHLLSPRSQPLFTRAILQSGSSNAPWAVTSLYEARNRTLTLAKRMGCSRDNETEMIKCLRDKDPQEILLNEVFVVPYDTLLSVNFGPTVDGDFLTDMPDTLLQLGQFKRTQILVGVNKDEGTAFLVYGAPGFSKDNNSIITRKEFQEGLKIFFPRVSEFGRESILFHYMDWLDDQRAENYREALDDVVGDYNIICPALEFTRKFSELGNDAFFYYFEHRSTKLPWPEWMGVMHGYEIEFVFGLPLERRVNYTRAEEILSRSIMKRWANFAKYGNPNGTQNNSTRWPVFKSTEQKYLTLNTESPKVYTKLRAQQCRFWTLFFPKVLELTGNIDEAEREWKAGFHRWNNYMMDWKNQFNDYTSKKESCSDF
# ASSAY NOTES: In vitro cholinesterase enzyme assay (Ellman), BChE
# Assay type: biochemical
pIC50: −log10 of the molar value.
Below, each entry is listed alongside its reported pIC50.
PROPERTY NAME: pIC50

INSERT INTO assay_data (test_smiles, reported_measurement) VALUES
  ('Cc1cc2c(c(C)c1CCO)C(=O)C(C)(C)C2', 4.10),
  ('Cc1cc2c(c(C)c1CCO)C(=O)[C@H](C)C2', 4.32),
  ('Cc1cc2c(c(C)c1CCO)C(=O)[C@H](C)[C@H]2O', 4.69),
  ('Cc1c(CCO)c(CO)cc2c1C(=O)[C@@H](C)C2', 4.25),
  ('Cc1cc2c(c(C)c1CCO)C(=O)[C@@H](C)[C@H]2O', 4.35);
